Test system: RARg:RXRa (NR concentration 270 nM, RXRa partner concentration 90 nM)
Test Summary: PBM binding z-score (relative to random genomic background probes); higher = stronger binding; sequences stand for … in GC…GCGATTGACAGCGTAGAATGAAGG
As shown below, each of these sequences has a reported PBM binding z-score value.
// no unit string in output, number only

Previously resolved entries follow.
AGTCACAGTTCACTAGGTAACGTAAGATTCAGCT: 2.17
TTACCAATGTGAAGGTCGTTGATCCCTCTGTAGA: 0.262
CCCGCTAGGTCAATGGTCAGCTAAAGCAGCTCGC: 3.62

Consider the sequence shown here: `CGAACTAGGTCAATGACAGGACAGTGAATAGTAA` What is its recorded PBM binding z-score?
4.32

---

Test system: PPARg:RXRa 270nM:90nM, anti-RXR (NR concentration 270 nM, RXRa partner concentration 90 nM)
Test Summary: PBM binding z-score (relative to random genomic background probes); higher = stronger binding; sequences stand for … in GC…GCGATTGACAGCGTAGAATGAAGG
Reported PBM binding z-score is given for each of the following sequences.

See these solved cases before continuing.
TAGCCTAGGTCATTCAGGGGCCAGTACAGAAAGC: 2.39
TGAATGAGGTTATTAGATCAGGGAACGTTGCAAA: 2.61
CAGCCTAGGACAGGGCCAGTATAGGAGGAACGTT: -0.522

# query: PBM binding z-score of entry `GCGACTGGGGCAAAGCAGGCTACCATAAGGTTGG`
0.966

Find the recorded PBM binding z-score belonging to `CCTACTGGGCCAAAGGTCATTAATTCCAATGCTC` and report it.
10.3

# query: PBM binding z-score of entry `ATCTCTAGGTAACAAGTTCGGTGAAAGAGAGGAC`
1.67

---

Test system: PPARg homodimer (NR concentration 180 nM)
Test Summary: PBM binding z-score (relative to random genomic background probes); higher = stronger binding; sequences stand for … in GC…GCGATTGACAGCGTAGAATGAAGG
Parameter Measured: PBM binding z-score
// no unit string in output, number only

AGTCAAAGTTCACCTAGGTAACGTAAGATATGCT: 2.06
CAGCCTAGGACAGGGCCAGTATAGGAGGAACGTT: 0.0188
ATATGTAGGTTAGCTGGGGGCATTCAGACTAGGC: 1.96
CTCGAAAGGTCGTGTTCAGGTGAGTATACCAAAC: 1.51
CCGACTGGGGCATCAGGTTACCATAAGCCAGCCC: 0.326

For the sequence shown here, `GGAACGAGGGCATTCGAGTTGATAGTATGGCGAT` , give the reported PBM binding z-score.
-0.115

Consider the sequence shown here: `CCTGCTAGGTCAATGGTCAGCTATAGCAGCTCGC` What is its recorded PBM binding z-score?
1.14

Could you share which PBM binding z-score value was measured for `ATATGTAGGTTAAGGGTCAATCAGGTTGGTTCGC` ?
4.11

What PBM binding z-score value was documented for this sequence, `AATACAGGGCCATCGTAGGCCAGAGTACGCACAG` ?
-0.388

GET /values?readout=PBM binding z-score&item= `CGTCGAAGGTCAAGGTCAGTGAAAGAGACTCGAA`
2.78

Reported PBM binding z-score, sequence `AGTAAAAGTTCATCTAGGTAACGTAAGATATGCT` : ____
2.75

Given `GCTTACGGTTCAAAGGTTATAGCATGAATAGAAT` , state its recorded PBM binding z-score.
0.99

What PBM binding z-score value was documented for this sequence, `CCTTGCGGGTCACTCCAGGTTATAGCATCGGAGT` ?
1.54

---

Tested on: PPARg DBDmut:RXRa IVT, anti-PPARg (DBD mutation: PPARg1 K132A/R137A, NR concentration 270 nM, RXRa partner concentration 90 nM)
Test Summary: PBM binding z-score (relative to random genomic background probes); higher = stronger binding; sequences stand for … in GC…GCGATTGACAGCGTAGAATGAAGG
Response field class: enum, chosen by comparing PBM binding z-score against c1 (below -0.3), c2 (-0.3 to below 0.4), c3 (0.4 or more)

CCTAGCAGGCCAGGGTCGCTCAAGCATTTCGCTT: c1

Hey, which category is `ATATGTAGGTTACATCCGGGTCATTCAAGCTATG` in, do you know?
c3

Which bin, given its PBM binding z-score, does `CCTACTGGGCCGAAGGTCATTGATTCCAATGCTC` occupy?
c1

Bin? `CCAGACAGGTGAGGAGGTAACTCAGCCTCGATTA`
c1

Which of the defined bands does the recorded PBM binding z-score of `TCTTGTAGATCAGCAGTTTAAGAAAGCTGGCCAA` sit within?
c2

State the band of `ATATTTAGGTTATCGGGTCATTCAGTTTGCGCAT`
c3

---

Tested on: FXR:RXRa (NR concentration 270 nM, RXRa partner concentration 90 nM)
Test Summary: PBM binding z-score (relative to random genomic background probes); higher = stronger binding; sequences stand for … in GC…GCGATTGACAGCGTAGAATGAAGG
Parameter Measured: PBM binding z-score
Keep it simple and answer with nothing but the number.

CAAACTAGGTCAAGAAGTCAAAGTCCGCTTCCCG: 3.65
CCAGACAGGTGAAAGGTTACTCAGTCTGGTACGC: 2.37
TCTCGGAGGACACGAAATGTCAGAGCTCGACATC: 0.755
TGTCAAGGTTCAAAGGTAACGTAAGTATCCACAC: 6.06

Request the reported PBM binding z-score associated with `AGAATGAGGTTACCACAGATCAGGGAAACGCTTG`
1.97

Give the measured PBM binding z-score of `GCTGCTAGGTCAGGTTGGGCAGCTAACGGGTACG` .
1.01

# input sequence: `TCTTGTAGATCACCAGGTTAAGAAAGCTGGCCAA` ; wanted: its PBM binding z-score
0.657

---

System: RXRa DBDmut IVT, anti-RXR (DBD mutation: RXRa K156A/R161A, NR concentration 90 nM)
Test Summary: PBM binding z-score (relative to random genomic background probes); higher = stronger binding; sequences stand for … in GC…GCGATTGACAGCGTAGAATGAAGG
# key: entry, value: PBM binding z-score
Lab note: record just the number, no unit beside it.

Reference set (2 entries):
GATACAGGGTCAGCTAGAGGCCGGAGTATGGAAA: 1.07
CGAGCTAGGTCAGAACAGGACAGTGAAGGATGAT: 0.0691

Observed PBM binding z-score on RXRa DBDmut IVT, anti-RXR (DBD mutation: RXRa K156A/R161A, NR concentration 90 nM) for `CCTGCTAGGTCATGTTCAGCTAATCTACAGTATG` , please.
2.42

Query for RXRa DBDmut IVT, anti-RXR (DBD mutation: RXRa K156A/R161A, NR concentration 90 nM): what PBM binding z-score does the record show for `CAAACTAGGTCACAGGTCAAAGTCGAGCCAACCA` ?
2.31

Form field: PBM binding z-score recorded for `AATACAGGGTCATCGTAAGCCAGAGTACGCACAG` with RXRa DBDmut IVT, anti-RXR (DBD mutation: RXRa K156A/R161A, NR concentration 90 nM) (enter value)
3.07

Provide the documented PBM binding z-score with RXRa DBDmut IVT, anti-RXR (DBD mutation: RXRa K156A/R161A, NR concentration 90 nM) as the system for `CCTAGTTGGTCAGGAGGTCATACACCGGATATGA`
0.572

Under RXRa DBDmut IVT, anti-RXR (DBD mutation: RXRa K156A/R161A, NR concentration 90 nM): PBM binding z-score value of `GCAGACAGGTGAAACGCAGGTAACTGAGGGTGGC` ?
-0.51

Give the reported PBM binding z-score for `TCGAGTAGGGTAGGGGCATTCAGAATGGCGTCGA` (system: RXRa DBDmut IVT, anti-RXR (DBD mutation: RXRa K156A/R161A, NR concentration 90 nM)).
0.328

---

System: PPARa:RXRa (NR concentration 270 nM, RXRa partner concentration 90 nM)
Test Summary: PBM binding z-score (relative to random genomic background probes); higher = stronger binding; sequences stand for … in GC…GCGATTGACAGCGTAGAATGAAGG
Parameter Measured: PBM binding z-score
Form rule: numeric answer, no unit written next to it.

Below, each entry is followed by its recorded PBM binding z-score result.
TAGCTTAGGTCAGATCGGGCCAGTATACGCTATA: 1.96
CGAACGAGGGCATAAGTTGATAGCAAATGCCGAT: 1.49
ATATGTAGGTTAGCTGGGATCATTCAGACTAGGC: 2.71
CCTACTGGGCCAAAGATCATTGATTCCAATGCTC: 3.5
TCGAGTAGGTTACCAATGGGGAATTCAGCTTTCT: 0.977
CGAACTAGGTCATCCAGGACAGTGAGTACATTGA: 4.49
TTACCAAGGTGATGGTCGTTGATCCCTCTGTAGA: 0.442
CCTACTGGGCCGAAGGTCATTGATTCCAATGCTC: 4.85

Recorded PBM binding z-score of `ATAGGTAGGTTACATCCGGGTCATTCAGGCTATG` , please.
3.17

Sample `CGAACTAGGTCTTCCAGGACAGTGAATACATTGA` — what was its PBM binding z-score?
0.796

Find the recorded PBM binding z-score belonging to `TAGCTTAGGTCATTCAGGGGCCAGTATAGAAAGC` and report it.
3.69

GET /values?readout=PBM binding z-score&item= `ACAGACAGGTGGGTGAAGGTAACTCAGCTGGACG`
0.238

Quick one: PBM binding z-score for `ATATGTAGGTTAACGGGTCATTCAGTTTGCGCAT` ?
5.14

Every entry's value here was drawn from the supplement of paper PMC6555819.
